target: T1, monomeric soluble human PD1-Avi-His (human, UniProt Q15116 25-170); assay: SPR (BIACORE T200), antibody captured on anti-human IgG, monomeric PD1-Avi-His flowed, 1:1 fit
T1 construct: extracellular domain; not shown: Avi tag and His tag at the C-terminus
T1 sequence (Q15116 25-170): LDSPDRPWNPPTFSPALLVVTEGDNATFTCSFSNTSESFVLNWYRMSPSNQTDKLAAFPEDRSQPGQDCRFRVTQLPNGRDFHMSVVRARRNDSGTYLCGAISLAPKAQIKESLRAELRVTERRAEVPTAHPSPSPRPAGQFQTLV
Property Name: Kd (nM)
Record the value in nM, omitting the unit from your answer.

Please review the following examples before continuing.
[
  {
    "Binder": "APE1963 (antibody, human IgG1, V domains shown, expressed from HEK 293 cells as human IgG1) VH: EVQLLESGGGLVQPGGSLRLSCAASGFTFSSYTMSWVRQAPGKGLEWVSVISSGGNSAYYPDSVQGRFTISRDNSKNTLYLQMNSLRAEDTAVYYCAKEYYGSSHFAYWGQGTLVTVSS VL: EIVLTQSPATLSLSPGERATLSCRASESVDNFGISFMSWYQQKPGQAPRLLIYAASNPGSGIPARFSGSGSGTDFTLTISSLEPEDFAVYYCQQSKEVPYTFGQGTKLEIK",
    "Obs Value": 17
  },
  {
    "Binder": "APE1922 (antibody, human IgG1, V domains shown, expressed from HEK 293 cells as human IgG1) VH: EVQLLESGGGLVQPGGSLRLSCAASGFTFSSYTMSWVRQAPGKGLEWVSVISSGGDSAYYPDSVQGRFTISRDNSKNTLYLQMNSLRAEDTAVYYCAKEHYGTSHFAYWGQGTLVTVSS VL: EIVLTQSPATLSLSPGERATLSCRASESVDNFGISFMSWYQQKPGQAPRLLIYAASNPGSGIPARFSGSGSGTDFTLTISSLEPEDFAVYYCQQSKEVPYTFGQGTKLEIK",
    "Obs Value": 15
  }
]

API: the following record is the query input.
// lookup Kd for APE1924 (antibody, human IgG1, V domains shown, expressed from HEK 293 cells as human IgG1) VH: EVQLLESGGGLVQPGGSLRLSCAASGFTFSSYTMSWVRQAPGKGLEWVSVISSGGNYAYYPDSVQGRFTISRDNSKNTLYLQMNSLRAEDTAVYYCAKEHYGTSHFAYWGQGTLVTVSS VL: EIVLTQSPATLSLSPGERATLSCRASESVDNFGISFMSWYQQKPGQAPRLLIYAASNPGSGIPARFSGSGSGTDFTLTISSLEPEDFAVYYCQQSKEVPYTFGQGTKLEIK
10
